assay: folding stability dG unfold from trypsin proteolysis; higher = more stable
assay readout: folding stability dG unfold (kcal/mol)

SAGGSAGGKKKFKVEKITEIKVEKLENGEEVIVKIRLKNGEEIEIPAKDIKLEDLPEGAEIEVISAGGSAGG [r6_609_TrROS_Hall] | 0.123
SAGGSAGGSAGGMKVKAYIFENGKLKEIELSEEELKELLKKLPNARILIEVDGKKLELPASAGGSAGGSAGG [r7_188_TrROS_Hall] | 1.93
SAGGSAMMTLEEAIEKAAKNIPVGEKKIIEIKLEKGTFTVEIEKIGPKEVKIKILKISKGPEEEEISAGGSA [r15_150_TrMRF] | 3.99
SAGGSAGGSAGSMEPVKTEELESGEVRTVSLLPDGTIKEELIKIEGEGETVETKVVPLEESAGGSAGGSAGG [r11_699_JUSTAS] | 0.745
SAGGSGDPNAAPVVVKVTIDITRPTADDSYVTSPVELTLLESEVDEFLAELEKEPDLELKVEVTLESAGGSA [r2_270_JUSTAS] | 0.829
SLGPNEDAILEEEAIIDIDPEAFRKAFGFDVPEDTKVLIITRRRVPANGDIETDPEIYIYDPKTKKFYPISA [r9_349_TrMRF] | 2.05
SAGGSAGGSAGGSGSSIPIVVEEKPEVSEDPSRVVLTTKIILKDPNGNSIETITEVELKSAGGSAGGSAGGS [r4_75_JUSTAS] | -0.492

###

experiment: folding stability dG unfold (combined trypsin and chymotrypsin); higher = more stable
Could you label it true if measured folding stability dG unfold is 2 kcal/mol or higher, and false otherwise?

SAGGSAGGSAGEGLKVTVTVSGELDPEKGGLSLRVEIRVEPVLIPPPVLPPAADNLSNLLSAGGSAGGSAGG [r17_454_TrMRF] | false
SAGGSAGPPKPGKIELEFEDPSGGKKYKVDIYIYPNNEVKTKALNPDGTPIPEEEIKKILKKLGLKSAGGSA [r15_872_JUSTAS] | false
SAGGSAGGPIVIKVKSLEEAKELVEKLAKELTPENVKVEIKEVFEPENSYYVVIEIKTASPEEESAGGSAGG [r6_72_TrMRF] | true
SMFRPFPLPDGRPAYDFIIPGLELASSFFPETGRPVLVLRPGGRLGAAPLFAADLDVLFSRPPLVAVEPDSA [r9_205_TrMRF] | false
SAGGLEEVAQELEAQGGEVEVRKVGGGSTEITVRLREPEAPRLLEVRLSLPPAGARLQVLSREALPPSAGGS [r16_613_JUSTAS] | false
SAGGSAGGSEEIKKAIEEALKKMKPGEEKEVTIEIYDKKTNKKIAKIKIRIRRKKDGKLEIEFSAGGSAGGS [r20_151_TrROS_Hall] | true
SAGGSAGGSAGGSRKINIFFDDPEQARKFAREIRNEGLPPEDMPIKVEITPIPPEDMGASAGGSAGGSAGGS [r4_281_TrROS] | false

###

assay: folding stability dG unfold from trypsin proteolysis; higher = more stable
assay readout: folding stability dG unfold (kcal/mol)

SAGGSAGGSAGGSSMITVSTTSFPDGTRKVTITEPGTGKPLKTVDMPPSESVSAVKEKLSSAGGSAGGSAGG [r7_633_JUSTAS] | -0.012
SAGGTITIELDGVTIEVRVEEKDGTLTLTAKVYNKDTGEVFEIEITITRKEDGSVTITIKITKIEPLPSAGG [r13_1004_TrROS_Hall] | 2.44
SAGGMERKTLTVNVPASVPASELLSLLEGYGDVLLVLGNGEVLHIKRDDAPGLEGLPLSDDDVLELYYSAGG [r13_399_TrMRF] | -0.696
SAGGEIAKRFAKYARDAGYDVRVDVEIIPPDEFPGLKPGKPYVIKVEIEVTPPNGPRRPLGEFTIMINSAGG [r13_874_TrROS] | 2.13
SAGGSAGGSAGGGKTVVYRFPASLTPEQAVDEITAKVPPNYPVIVEYHPESGTFVAYVPSAGGSAGGSAGGS [r10_163_TrMRF] | 0.725
SAKIRIPLEKLIDLAESIPGVEVLYDPETGLLLAFIPEIGMLILIRLEEDPEDPDNVEVDIEIIPLSPFSAG [r14_604_TrMRF] | 2.75
SAGGSAGGSAKYITIFFWGSVEEALKSIPIPPGFKVEIDNIHRNPDGWMWVMITIEIPPNMKSAGGSAGGSA [r18_510_TrROS] | 2.68

###

Consider the following sequences and their measured folding stability dG unfold readings.
experiment: folding stability dG unfold (combined trypsin and chymotrypsin); higher = more stable
assay readout: folding stability dG unfold

SAGGSAKLSAEEIAKLLKKLFPEVKEIKVKVEVNGKLYEVKIKVEKVKKKEKKKVEGMSEEEKKKLSAGGSA [r15_156_TrROS_Hall] | 2.35 kcal/mol
SAGGSAGGSAGGSKKTLPFPSVEDVVKYLKDLGLKDVKVDLPPGDLTINLDEIEEALKESAGGSAGGSAGGS [r4_101_TrMRF] | < -1 kcal/mol
SAGGSAGGSEKTIKITIKVKVKKKVTVKNKNGEKKTFEFEEKTYTLTTIKFDSKEDALKALKKSAGGSAGGS [r12_452_TrROS_Hall] | 2.17 kcal/mol
SAGGSAGGSAGPNWKKYTFTIFFPGYPFRVEIERPKDGPNAPLAIKIEDPNGKPMETFPISAGGSAGGSAGG [r11_223_TrROS] | 2.67 kcal/mol
SNIKNIKRVEIYYNPENGWMPKIKVEYPGGEREFMFPPDQAEELLNWLQQKGLPMKITDVEYHPMPPDQMSA [r9_607_TrROS] | 1.27 kcal/mol
SAPPETVEVEEVAEFELADGSKVTVAKVKLPNGETLVVVTVYNKDGEPVATFVVREGDPDALAEALKALSSA [r9_1069_TrROS_Hall] | 4.51 kcal/mol
SAMVVPVKVELEIRVPGTPEEALEIAEELAKAFESLGNVEVDLELIEKSEDGSYIIKLTVTNYLPPELFSAG [r14_413_TrMRF] | 1.53 kcal/mol

###

experiment: folding stability dG unfold from chymotrypsin proteolysis; higher = more stable
Could you label it Condition met if measured folding stability dG unfold is 2 kcal/mol or higher, and Condition not met otherwise?

SAGGSFGIEIEFHGNGFVIEMFNPETDTINTMRFKFDPDGQFTEMEMETIPIPPPPPPEKDENGKESAGGSA [r2_375_TrROS] | Condition met
SAGGGMVITTPQTTSTTFSPPTAPAVPAPFTQSSSFTIGNTKVTVTTTQAAGSGTTTVTLTTILPPLASAGG [r13_998_JUSTAS] | Condition not met
SAGGMAEEVAEAVRDFFESQGLPAEVEPLSVHPNNLVVYRFRVPGYYALVVADPDNPVVVVTVYPLPSAGGS [r8_157_TrMRF] | Condition met
SAGGSAGGSAGGMTIVIVVPAENLTPEEIAELLREAGYEVTVERREDGYLVVTVRLPEPSAGGSAGGSAGGS [r10_1254_TrROS_Hall] | Condition met
SAGGSAGGSAGGKDGYYKAIIELPGGEKREIVFKYEDFEEALKSLGIPLENVKIVKIEEGSAGGSAGGSAGG [r7_211_TrMRF] | Condition met
SAGGSAGGSAGGMPPVEIVEIVNSPGKNPVIVLDPATGEPRLIEVPPDVTLTPEMARRESAGGSAGGSAGGS [r10_844_JUSTAS] | Condition not met
SAGGSAGGGPPNAPLKIYTDDGSVNLLNLDGQPLLVTVHPDATAEITLPDGTKITVPIPPGANLSAGGSAGG [r6_105_TrMRF] | Condition not met
SAMIEVYRPPDRALVKLPSGKVEILDDPEAFEARVRAESDLPIRVTPLSPESPEFKALLEEIEKKLKGKSAG [r14_235_JUSTAS] | Condition not met
SAGMETVVTYDPSNGTVTTTTTVFAPDGTPLGSLSTTTPIGGGTITYTTITIDPETGTVTTTTTAYPGASAG [r5_34_JUSTAS] | Condition met
SMTLVLDVSPDKAYKFKIEYKTPDGKRLTVDADTTMEPDGTARVPLKIPDSSVPPGTPLEIEKVEVTPLLSA [r9_359_JUSTAS] | Condition not met
SAGVVEELLKEFPDVEKVTSSSYPGPKVSQYVIYFPTPSGKKVTIKITVTQPRLPSNSTTSELSIELNDSAG [r5_398_JUSTAS] | Condition met
SAGGSAGGSAKPRVKIVEVDEEKKRVLVKTEDGEVVELEGLTPEQIEELAKALGADEVELVSAGGSAGGSAG [r3_78_TrROS_Hall] | Condition not met
SMYYYGKFTFTNPTGGPTIGDVYIITKSKEEAEALAKEEASKKNVKVEIEIKEIPESEYENPEKVKELLSSA [r9_864_JUSTAS] | Condition not met

###

Consider the following sequences and their measured folding stability dG unfold readings.
test: folding stability dG unfold (combined trypsin and chymotrypsin); higher = more stable
assay readout: folding stability dG unfold (kJ/mol)

SAGGSAGGSAGGPVRIVMKPSDIEYLLEKFGVEPLEIEEVEEDYVVVTITPEALKEAGLGSAGGSAGGSAGG [r7_587_TrMRF] | 4.25
SAKKLIIKVEVETFDEETGELKTEERTIEADTLEDALAEIERELPPGARVRIEVFDADGKLVETIEIELSAG [r14_234_TrROS_Hall] | 16.4
SAGGSAMIEEKLIEIPPIPVPYPDGSVQKVPVLVEETVELKPFIDPNTDKTSTAKTVTKRKVIFPSSAGGSA [r15_884_JUSTAS] | 1.59
SAGGSAPNKWKTVDIEFMFPPDNLEEFVDEISKLPGIKASIEPVEYDPEGMYWMKIDITIPPGMKISAGGSA [r15_441_TrROS] | 6.87
